Tested on: OVCAR-5
Assay: NCI tumour cell line growth inhibition, 48 h
Active and inactive are the calls of the source. No stated cut-off is given here; in the data, active = GI50 up to about 1.1 µM and inactive = higher.
Please answer using one outcome listed in 1 (active), 0 (inactive)

Known results for molecules:
{"molecule": "CC(=O)OCC(=O)OC[C@H](OCc1ccccc1)[C@@H]1[C@H](OC(C)=O)C(=O)N1Cc1ccccc1", "system.name": "OVCAR-5", "category.label": 0}
{"molecule": "Cc1ccc(/C=C/C(=N/NC(=O)N/N=C(/C=C/c2ccc(C)cc2)C(C)(C)CN2CCCCC2)C(C)(C)CN2CCCCC2)cc1", "system.name": "OVCAR-5", "category.label": 0}

Challenge: Hello, I am checking results. What call was entered for `COc1ccc(-n2c(C)nc3ccc(/N=C/c4ccccc4)cc3c2=O)cc1` ?
Response given: 0

Challenge: `NC(=O)c1ncn2c1CNC(=O)C2` ?
Response given: 0

Challenge: `O=C(O)CC[C@H](NC(=O)c1ccc(-n2nc3ccc(=O)cc-3[nH]c2=O)cc1)C(=O)O` ?
Response given: 0

Challenge: COC1CC(n2ccc(=O)[nH]c2=O)OC1CO (centres undefined) ?
Response given: 0

Challenge: `COc1cc2c(cc1OC)[C@H]1CN3CCC[C@H]3C=C1c1ccc(OC)c(O)c1-2` ?
Response given: 1

Challenge: O=C(O)C(Cc1cc(I)c(O)c(I)c1)C1CCCCC1 (centres undefined) ?
Response given: 0

Challenge: CSc1nc(NC2OC(COC(C)=O)C(OC(C)=O)C(OC(C)=O)C2OC(C)=O)c2c(n1)OCC2=O (centres undefined) ?
Response given: 0

====

Consider the following compounds and their measured GI50 readings.
Test system: Malme-3M
Experiment: NCI tumour cell line growth inhibition, 48 h
Calls of active or inactive are those of the source. No stated cut-off is given here; in the data, active = GI50 up to about 1.1 µM and inactive = higher.

Take a look at these entries with their results.
{"compound": "N#Cc1nc(C2CCC2)oc1N", "system.name": "Malme-3M", "GI50": "> 100 µM (inactive)"}
{"compound": "Cc1ccc(C(=O)Nc2ccc(CP(=O)(O)O)cc2)cc1NC(=O)Nc1cc(C(=O)Nc2ccc(CP(=O)(O)O)cc2)ccc1C", "system.name": "Malme-3M", "GI50": "> 100 µM (inactive)"}
{"compound": "CC(=O)OCC(=O)OC[C@H](OCc1ccccc1)[C@@H]1[C@H](OC(C)=O)C(=O)N1Cc1ccccc1", "system.name": "Malme-3M", "GI50": "> 100 µM (inactive)"}

Challenge: Which measured GI50 value corresponds to `O=C1N=C2N=C(c3ccc(Cl)cc3)N(c3ccc(Cl)cc3)N2Sc2ccccc21` ?
Response given: > 100 µM (inactive)

Challenge: `O=c1[nH]c2ccccc2c(=O)c2cc3ccccc3cc12` ?
Response given: 45.6 µM (inactive)

Challenge: `O=C(CSCC(=O)N/N=C\c1ccccc1F)N/N=C\c1ccccc1F` ?
Response given: > 100 µM (inactive)

Challenge: `CN1CCC(C(=O)NNc2ccccc2)CC1` ?
Response given: 22.4 µM (inactive)

====

Consider the following molecules and their measured GI50 readings.
Test system: HCC 2998
Assay: NCI tumour cell line growth inhibition, 48 h
Calls of active or inactive are those of the source. Rule as the data show it: active = GI50 up to about 1.1 µM and inactive = higher.

{"molecule": "CSc1ccc(/C=C/c2ccnc3ccccc23)cc1", "GI50": "13.9 µM (inactive)"}

API: the following record is the query input.
Challenge: Which measured GI50 value corresponds to `CCOC(=O)[C@H](Cc1ccccc1)NC(=O)c1nc[nH]c1[N+](=O)[O-]` ?
Response given: > 100 µM (inactive)

====

System: SN12C
Test: NCI tumour cell line growth inhibition, 48 h
Activity calls are given as the source filed them. No stated cut-off is given here; in the data, active = GI50 up to about 1.1 µM and inactive = higher.
measurement.label: GI50

{"compound": "CCN(CC)c1ccc2nc3ccc(/N=N/c4c(O)ccc5ccccc45)cc3[n+](-c3ccccc3)c2c1", "GI50": "> 100 µM (inactive)"}
{"compound": "CC(=O)SC(C[N+](=O)[O-])c1ccc2c(c1)OCO2 (stereo not given)", "GI50": "5.73 µM (inactive)"}

Challenge: Which measured GI50 value corresponds to `O=C1Nc2ccccc2/C1=N/Nc1nc(-c2ccc(Br)cc2)cs1` ?
Response given: 27.1 µM (inactive)

Challenge: `C[C@H]1COC2=C1C(=O)C(=O)c1c2ccc2c1CCCC2(C)C` ?
Response given: 4.37 µM (inactive)

Challenge: `C1=CCC[C@@H]2CN3CCCC/C=C\CCCC[C@H]4C[C@H](CN(CCCCCCCC1)C4)[C@H]2CC3` ?
Response given: 12.5 µM (inactive)

====

Consider the following compounds and their measured GI50 readings.
System: SNB-19
Test: NCI tumour cell line growth inhibition, 48 h
The source made the active and inactive calls. Cut-off read from the data, not from the text of the source: active = GI50 up to about 1.1 µM and inactive = higher.

Take a look at these entries with their results.
{"compound": "COC(=O)c1sc(C(=O)OC)c2c1CSC2", "GI50": "51.8 µM (inactive)"}
{"compound": "CN(C)c1ccc(/C=N/CC2CCCN3CCCCC23)cc1 (stereo unspecified)", "GI50": "> 100 µM (inactive)"}
{"compound": "COC(=O)C1=C(O)C(C(=O)OC)[C@]2(O)[C@H](C(=O)OC)[C@H]1C[C@@H](c1ccc(C(F)(F)F)cc1)[C@H]2C(=O)OC (stereo partly specified)", "GI50": "3.87 µM (inactive)"}
{"compound": "c1csc(-c2ccc(-c3cccc4nsnc34)s2)c1", "GI50": "> 100 µM (inactive)"}
{"compound": "CN(C)C(=Nc1nc(N(C)C)s[s+]1)N(C)C", "GI50": "> 100 µM (inactive)"}

Challenge: Which measured GI50 value corresponds to `NC(=O)COc1ccccc1` ?
Response given: > 100 µM (inactive)

Challenge: c1ccc2[nH]c(CNc3ccc(C4C[Se]N=N4)cc3)nc2c1 (stereo unspecified) ?
Response given: 84.1 µM (inactive)

Challenge: O=C(O)C(Cc1cc(I)c(O)c(I)c1)C1CCCCC1 (stereo unspecified) ?
Response given: 35.6 µM (inactive)

Challenge: COC1(C)OC[C@@]2(C)OC(C)C1(C)C2O[Si](C(C)C)(C(C)C)C(C)C (stereo partly specified) ?
Response given: 48.9 µM (inactive)

Challenge: `CO/N=C/c1cc(OC)c(OC)c(OC)c1` ?
Response given: > 100 µM (inactive)

Challenge: CC(=O)c1c(C)cc2cccc(OC3OC(CO)C(O)C(O)C3O)c2c1O.CC1OC(O)C(O)C(O)C1O (stereo unspecified) ?
Response given: > 100 µM (inactive)

====

Tested on: SNB-19
Assay: NCI tumour cell line growth inhibition, 48 h
Active and inactive are the calls of the source. Rule as the data show it: active = GI50 up to about 1.1 µM and inactive = higher.
measurement.label: GI50

Take a look at these entries with their results.
{"compound": "S=C(NN=C1NCCCCN1)Nc1ccccc1", "GI50": "> 100 µM (inactive)"}
{"compound": "CC(=O)SC(C[N+](=O)[O-])c1ccc2c(c1)OCO2 (stereo unspecified)", "GI50": "9.31 µM (inactive)"}
{"compound": "O=C(CSCC(=O)N/N=C\\c1ccccc1F)N/N=C\\c1ccccc1F", "GI50": "> 100 µM (inactive)"}
{"compound": "Cc1ccc2c(c1)C(C1Cc3c(C)cccc3C1=O)OC2=O (stereo unspecified)", "GI50": "> 100 µM (inactive)"}
{"compound": "C/C=C1/CN2CCC34C5=CC(=O)C(c6cc7c(cc6OC)N(C)C6=C(C(=O)OC)CC8(CC)CCCN9CCC67C98)=CC5=NC23CCC1C4C(=O)OC (stereo unspecified)", "GI50": "16 µM (inactive)"}
{"compound": "CSc1nc(NC2OC(COC(C)=O)C(OC(C)=O)C(OC(C)=O)C2OC(C)=O)c2c(n1)OCC2=O (stereo unspecified)", "GI50": "> 100 µM (inactive)"}
{"compound": "Cc1ccc(/C=C/C(=N/NC(=O)N/N=C(/C=C/c2ccc(C)cc2)C(C)(C)CN2CCCCC2)C(C)(C)CN2CCCCC2)cc1", "GI50": "2.11 µM (inactive)"}
{"compound": "CCCCCCCC(=O)OC(CBr)COC(=O)C(C)(C)C (stereo unspecified)", "GI50": "> 100 µM (inactive)"}

Challenge: Which measured GI50 value corresponds to `OCCCCn1cc(Cn2ncc3c(NCc4ccccc4)ncnc32)nn1` ?
Response given: > 100 µM (inactive)

Challenge: `COc1ccc(-c2cc(O)c3cc4c(cc3n2)OCO4)cc1` ?
Response given: 55.5 µM (inactive)

Challenge: `OCC[N+]12CCCN1CCC2` ?
Response given: > 100 µM (inactive)

====

Tested on: SN12C
Test: NCI tumour cell line growth inhibition, 48 h
Calls of active or inactive are those of the source. No stated cut-off is given here; in the data, active = GI50 up to about 1.1 µM and inactive = higher.
Please answer using one outcome listed in active, inactive

Known results for molecules:
{"molecule": "CCCCCCCCCCCCCCCCOC[C@H](COC(c1ccccc1)(c1ccccc1)c1ccccc1)O[PH](=S)OC (stereo not given in full)", "system.name": "SN12C", "category.label": "inactive"}
{"molecule": "COC(=O)CCc1ccc2c(c1)CC1(Cc3ccccc3C1)C2", "system.name": "SN12C", "category.label": "inactive"}
{"molecule": "CC(C)(C)OP(=O)(OC(C)(C)C)C(O)c1ccc(/C=C(\\C#N)C(N)=O)cc1 (stereo not given)", "system.name": "SN12C", "category.label": "inactive"}
{"molecule": "CSC1NC=Nc2c1sc(=S)n2-c1ccccc1 (stereo not given)", "system.name": "SN12C", "category.label": "inactive"}
{"molecule": "CC(C)CCNC(=O)c1ccc(CNC(=O)/C=C/c2csc(-c3ccccc3)n2)cc1", "system.name": "SN12C", "category.label": "inactive"}
{"molecule": "CCOC(=O)c1c(OCC)[nH]c(=O)c(C(c2cccs2)c2c(O)c(C(=O)OCC)c(OCC)[nH]c2=O)c1O", "system.name": "SN12C", "category.label": "inactive"}
{"molecule": "CC(C)(Br)C(=O)N1CCN(C(c2ccccc2)c2ccccc2)CC1", "system.name": "SN12C", "category.label": "inactive"}
{"molecule": "C=C(CO)C(=O)OC1CC(=C)C2CC(O)C(C)C2C2OC(=O)C(=C)C12 (stereo not given)", "system.name": "SN12C", "category.label": "inactive"}
{"molecule": "CCCCS(=O)(=O)CCC(N)C(=O)O (stereo not given)", "system.name": "SN12C", "category.label": "inactive"}
{"molecule": "Cc1ccc(C2=Nc3ccccc3NC(=O)C2)cc1", "system.name": "SN12C", "category.label": "inactive"}

Okay, now this molecule:
Challenge: Hello, I am checking results. What call was entered for `O=c1cc(-c2ccccc2)oc2c(-c3cc(Cl)cc4c(=O)cc(-c5ccccc5)oc34)cc(Cl)cc12` ?
Response given: inactive
